CC50 at 3 days listing for selected compounds.
Assay Comment: in vitro
Format: cell-based
Cond: human, HepG2 or HepG2.117 cells, 3-days incubation (unmarked values), ATPlite; mean value

The recorded CC50 at 3 days for entry COC(=O)C1COCCN1c1ccc(-n2c(NC(C)C)nc3c(c2=O)CCN(C(=O)c2ccc(Cl)c(Cl)c2)C3)cc1 (stereo not shown) equals 19.3 µM

Recorded CC50 at 3 days (compound "CCc1cc(C(=O)N2CCc3c(nc(NC(C)C)n(-c4ccc(S(C)(=O)=O)cc4)c3=O)C2)ccc1Cl" ): > 50 µM

Item: "COc1ccc(CNc2nc3c(c(=O)n2-c2ccc(S(C)(=O)=O)nc2)CCN(C(=O)c2ccc(Cl)c(Cl)c2)C3)cc1" | CC50 at 3 days: > 50 µM

// CC50 at 3 days lookup, compound = "CNC(=O)c1ccc(-n2c(N3CCCC3(C)C)nc3c(c2=O)C[C@@H](C)N(C(=O)c2ccc(Cl)c(Cl)c2)C3)cc1" , result: 28 µM

// CC50 at 3 days lookup, compound = "CC(C)Nc1nc2c(c(=O)n1-c1ccnnc1)CCN(C(=O)c1ccc(Cl)c(Cl)c1)C2" , result: > 50 µM

// CC50 at 3 days lookup, compound = "Cc1nnc(-c2ccc(-n3c(NC(C)C)nc4c(c3=O)C[C@@H](C)N(C(=O)c3ccc(Cl)c(Cl)c3)C4)cc2)s1" , result: > 50 µM

Please examine the following record next.
The compound "COc1ccc(CNc2nc3c(c(=O)n2-c2ccc(S(C)(=O)=O)cc2)C[C@@H](C)N(C(=O)c2ccc(Cl)c(Cl)c2)C3)cc1" showed CC50 at 3 days equal to > 42 µM
